Each recorded value in this set is attributed to patent EP4722206A1.

# target: AR-V7 (Homo sapiens, UniProt P10275)
# Construct: fusing HiBiT tag (PromegaTM) into the C-terminus of the AR-V7 genome of 22RV1 cells; host or cells: 22RV1 cells, CRISPR/Cas9 knock-in of HiBiT at the AR-V7 C-terminus
# Sequence (P10275 1-644 isoform P10275-3): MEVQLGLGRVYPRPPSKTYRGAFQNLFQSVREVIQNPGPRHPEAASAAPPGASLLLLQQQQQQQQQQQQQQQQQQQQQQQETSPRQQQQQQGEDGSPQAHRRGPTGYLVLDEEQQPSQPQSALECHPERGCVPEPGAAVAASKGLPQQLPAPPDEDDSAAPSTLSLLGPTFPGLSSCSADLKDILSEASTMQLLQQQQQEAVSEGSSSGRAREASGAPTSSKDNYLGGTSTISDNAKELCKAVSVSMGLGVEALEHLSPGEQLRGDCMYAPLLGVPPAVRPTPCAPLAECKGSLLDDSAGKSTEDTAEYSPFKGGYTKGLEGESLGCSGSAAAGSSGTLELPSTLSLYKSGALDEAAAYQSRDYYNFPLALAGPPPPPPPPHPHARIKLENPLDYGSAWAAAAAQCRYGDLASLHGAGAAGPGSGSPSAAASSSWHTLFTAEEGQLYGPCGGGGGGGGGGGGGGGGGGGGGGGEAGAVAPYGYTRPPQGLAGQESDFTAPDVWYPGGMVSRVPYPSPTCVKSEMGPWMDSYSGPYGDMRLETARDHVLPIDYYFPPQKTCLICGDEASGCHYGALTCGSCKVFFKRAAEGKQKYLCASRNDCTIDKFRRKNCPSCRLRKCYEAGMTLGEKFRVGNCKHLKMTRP
# protocol-description: AR degradation experiment (AR-V7-HiBiT, Nano-Glo HiBiT Lytic Detection)
# Format: cell-based
# condition: 22RV1 cells stably expressing AR-V7-HiBiT, 24 hr at 37 °C; concentration required for degradation 50% of the target protein
Criterion: DC50 strictly less than 20 nM. Met: True. Not met: False.

compound	target	category-label
N#Cc1cc2c(c(Cl)c1OCCCl)CCCC2c1cnc(N2CCC(OCCOc3ccc4c(c3)C(=O)N(C3CCC(=O)NC3=O)C4=O)CC2)nc1 (centres unmarked)	AR-V7 (Homo sapiens, UniProt P10275)	False
N#Cc1cc2c(c(Cl)c1OCCCl)CCCC2c1ccc(OCCCCOc2ccc3c(c2)C(=O)N(C2CCC(=O)NC2=O)C3=O)nc1 (centres unmarked)	AR-V7 (Homo sapiens, UniProt P10275)	False
CCOc1c(C#N)cc2c(c1Cl)CCCC2c1cnc(NCCOCCOc2ccc3c(c2)C(=O)N(C2CCC(=O)NC2=O)C3=O)nc1 (centres unmarked)	AR-V7 (Homo sapiens, UniProt P10275)	True
N#Cc1cc2c(c(Cl)c1OCCCl)CCCC2c1ccc(NCCOCCOc2ccc3c(c2)C(=O)N(C2CCC(=O)NC2=O)C3=O)nc1 (centres unmarked)	AR-V7 (Homo sapiens, UniProt P10275)	False
N#Cc1cc2c(c(Cl)c1OCCCl)CCCC2Nc1ccc(OCCCCNc2ccc3c(c2)C(=O)N(C2CCC(=O)NC2=O)C3=O)nc1 (centres unmarked)	AR-V7 (Homo sapiens, UniProt P10275)	False
N#Cc1cc2c(c(Cl)c1OCCCl)CCCC2c1cnc(N2CCC(OCCCOc3ccc4c(c3)C(=O)N(C3CCC(=O)NC3=O)C4=O)CC2)nc1 (centres unmarked)	AR-V7 (Homo sapiens, UniProt P10275)	False
N#Cc1cc2c(c(Cl)c1OCCCl)CCC[C@H]2c1cnc(NCCOCCOc2ccc3c(c2)C(=O)N(C2CCC(=O)NC2=O)C3=O)nc1 (some centres unmarked) [HANT-315-P1]	AR-V7 (Homo sapiens, UniProt P10275)	True

Ask: For N#Cc1cc2c(c(Cl)c1OCCCl)CCCC2c1cnc(NCCOCCOc2ccc3c(c2)C(=O)N(C2CCC(=O)NC2=O)C3=O)nc1 (centres unmarked) , is the recorded DC50 below the cut-off of 20 nM?
Reply: True
